// values below are reported glycan array binding signal (z-score)
# Target Or Test System: GlcNAc(a1-3)Gal(b1-4)GlcNAc
# Assay Details: glycan array binding signal (z-score within array); higher = stronger binding
# Measurement Context: glycan notation: IUPAC condensed, linker removed
This excerpt belongs to a sample that is enriched for the strongest signals.
Parameter Measured: glycan array binding signal (z-score)

Binder	Number
B936 (Bifidobacterium sp) (protein) MKNWKKAIALVASAAALVSVAACGPSNAGGSSDSGKKTVGFVAVGPEGGFRTANEKDIQKAFEDAGFDLTYSPTQNNDQQKQIQAFNKFVNDEVDAIILSSTEDSGWDDSLKKAAEAEIPVFTVDRNVDVKDAEAKKAIVAHIGPSNVWCGEQAAEFVNKNFPDGANGFILEGPAGLSVVKDRGTGWGNKVASNVKVLESQSANWSTDEAKTVTAGLLDKYKSDNPQFIFAQNDEMGLGAAQAVDAAGLKGKVKIITIDGTKNALQALVDGDLSYVIEYNPIFGKETAQAVKDYLDGKTVEKDIEIESKTFDAASAKEALDNNTRAY	0.799
Erv41-EDTA (Saccharomyces cerevisiae), Q04651 (protein) MKFLVNVALVFMVVYISYIYAAAPEHHHHHHDYDIPTTENLYFQGAMGYIDQQYVVDSQVRDTVQINMDIYVNTKCDWLQINVRDQTMDRKLVLEELQLEEMPFFIPYDTKVNDINEIITPELDEILGEAIPAEFREKLDTRSFFDESDPNKAHLPEFNGCHVFGSIPVNRVSGELQITAKSLGYVASRKAPLEELKFNHVINEFSFGDFYPYIDNPLDNTAQFNQDEPLTTYVYYTSVVPTLFKKLGAEVDTNQYSVNDYRYLYKDVAAKGDKMPGIFFKYNFEPLSIVVSDVRL	-0.577
HPAIIITrx (Helix pomatia), Q1KM18 (protein) MLFVTIISLGLLAIVHGQCALKTIAFSAAIDREQTFDANQVVIYDIVITNHGNAYDNSTGLFTAPVDGMYSFQLNLLTIKEKEGWLELVHNGQLKVSVYAKQDSTYDSSSNSVIIKMKEGDRVNVRAHKKSGLFGRDDELYNTFSGHFLSGL	0.416
CALR truncated at D342 (Homo sapiens) (protein) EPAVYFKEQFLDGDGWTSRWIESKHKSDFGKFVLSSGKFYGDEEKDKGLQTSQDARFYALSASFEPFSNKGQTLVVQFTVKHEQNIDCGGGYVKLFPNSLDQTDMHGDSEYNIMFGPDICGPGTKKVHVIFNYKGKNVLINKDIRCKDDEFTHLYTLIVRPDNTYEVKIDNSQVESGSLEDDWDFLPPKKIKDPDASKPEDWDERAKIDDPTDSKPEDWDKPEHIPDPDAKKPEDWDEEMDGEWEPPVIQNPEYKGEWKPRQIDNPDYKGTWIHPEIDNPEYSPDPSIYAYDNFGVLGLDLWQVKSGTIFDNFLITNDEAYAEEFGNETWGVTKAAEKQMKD	-0.73
rCnSL-A (Clitocybe nebularis) (protein) VNPNLPGPNDVFVGFRGTNNIVGAIYEKDGIKDTPLNNGADAEMGPGSYITDGLFTARIFASGSAGNNPGTTATVCKIYASGVQWRGAPKGYIPVAYFGNGPTAEQRRQTYLRTLGLPGTAIRFGNLNTNPGQGPTAPRQMVVPPGPLRSLLKASCFPAADTRLPQTLHYFEKRVDWNIITAADSQTWGH	-0.253
GSL-I (Griffonia simplicifolia) (protein) FNLPNFWSDVKDNIIFQGDANTTAGTLQLCKTNQYGNPLQYRAGRALYSDPVQLWDNKTGSVASFYTEFTFFLKITGDGPADGLAFFLAPPDSDVKDAGAYLGLFNKSTATQPSKNQVVAVEFDTWKNTDFPEPSYRHIGINVNSIVSVATKRWEDSDIFSGKIATARISYDGSAKILTVVLSYPDGADYILSHSVDLSKNLPNPIRVGISASTGANQFLTVYVLSWRFSSALQSTSVNAAMGPEIIRTVV	-0.199
PILRa (Homo sapiens), Q9UKJ1 (protein) MGRPLLLPLLPLLLPPAFLQPSGSTGSGPSYLYGVTQPKHLSASMGGSVEIPFSFYYPWELATAPDVRISWRRGHFHRQSFYSTRPPSIHKDYVNRLFLNWTEGQKSGFLRISNLQKQDQSVYFCRVELDTRSSGRQQWQSIEGTKLSITQAVTTTTQRPSSMTTTWRLSSTTTTTGLRVTQGKRRSDSWHISLETAVGVAVAVTVLGIMILGLICLLRWRRRKGQQRTKATTPAREPFQNTEEPYENIRNEGQNTDPKLNPKDDGIVYASLALSSSTSPRAPPSHRPLKSPQNETLYSVLKA	0.089
MXA PilAct-eGFP (Myxococcus xanthus), Q59589 (protein) MRVSRFNPRNRGFTLIELMIVVAIIGILAAIAIPNFIKFQARSKQSEAKTNLKALYTAQKSFFSEKDRYSDFANEIGFAPERGNRYGYRVSAAAGDCEVRNAADLPVPAAGVPCISNDSFRFGANSAIDDPTPVVARFVPQGAAGWNTTLGVQPTIADCPNCNFFAGARGNADNEATFDDWVIAGFEGSGQVGPCSEAGNVASGTPYNTRNDVACDGAAQ	-0.245
SLR2P3F12 (Tachypleus tridentatus), TAL2_TACTR (protein) MEKGTPPTHDSDNWMGRAKKIGNGGWNQFQFLFFDPNGYLYAVSKDKLYKASPPQSDTDNWIARATEIGSGGWSGFKSLFFHPNGYLYAVHGQRLYKALPPVSNQD	5.11
R410P1E11 (Tachypleus tridentatus), TAL2_TACTR (protein) MEKGTPPTHDSDNWMGRAKEIGNGGWDQFQFLFFDPNGYLYAVSNDKLYKASPPQSDTDNWIARATEIGSGGWSGFKFLFFHPNGYLYAVRGQRFYKALPPVSNQD	3.25

Provenance of the data: the supplement of paper PMC8728848
